test system: K4 kissing-loop RNA reporter; assay: apparent KD of K4 kissing-loop reporter; higher = weaker reporter binding; conditions: Eterna round: R107; input ligand: arginine 13.2 mM;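 note: bound reporter read as fluorescence of individual clusters on recovered sequencing chips by microscopy, with normalized cluster intensities fitted with a binding model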
Can you tell me apparent KD of K4 kissing-loop reporter for the items I'm about to list?
Unit nM implied. Number only.

Req: Value lookup for apparent KD of K4 kissing-loop reporter; key = AAAUUUAAUAUAUUUAAUUAAUUAUGUGAUACCAGACAUUAAUAAGUCCCUUGGCAGCACAAUGCAGUGAUGUUGCAUAUAAUAA [JR_SSTheophyA_Sub011]
Resp: 115

Req: Value lookup for apparent KD of K4 kissing-loop reporter; key = AACGACUGGAUGAAUAACAUCUAGUCGAUUCGAGGACCGGUACGGCCGCCACUCGAGCUAACUGCGAGUGAUGUUCGAUAAUAAA [#OpenEnded 3]
Resp: 433

Req: Value lookup for apparent KD of K4 kissing-loop reporter; key = GUACAUUGGAAACAAGAACAAAUAACCGAAGGAGCGCGUGAAAACGCAGGUAGGUCGCGGAAGCAGUGAUGUUGCAUUAGAGAUC [Same State Arginine A GF 16]
Resp: 103

Req: Value lookup for apparent KD of K4 kissing-loop reporter; key = AGCGGCCAGUCGGCCGCCACUCCAGGCAGUGAUGUUGCGAAGUUUCUACUAGAGUGAUGUUCUAAGAGGACCGGGACUGACGUAA [Exclusion Tryptophan B Gf 9]
Resp: 218

Req: Value lookup for apparent KD of K4 kissing-loop reporter; key = CGUUUAUAGGAGGAUACCAGUACGGAUAAAGUACGUUAAUAGUAGAGUGAUGUUCUAAAGUACCCUUGGCAGCUUAGAGUGAGUG [ExTheophylB.N]
Resp: 104

Req: Value lookup for apparent KD of K4 kissing-loop reporter; key = UGAUUUAACUGAAGGAGCGGCAAUUGAUAAGGAAAUAUAGUGAUGUUAUAUAAGAGAGAGAGCCAGGUAGGUCGCAGAGGGAGGA [ExArgB.H]
Resp: 105

* * *

test system: MS2 coat protein; assay: apparent KD of MS2 coat protein; designed switch direction (-1 OFF switch, 1 ON switch): -1; higher = weaker reporter binding; conditions: input ligand: none
metric: apparent KD of MS2 coat protein (nM)
Unit nM implied. Number only.

Req: Request - read-out apparent KD of MS2 coat protein | tested on MS2 coat protein | sequence GAAAACGUAGGAUAUUAAUACUUAUACAUGAGGAUCACCCAUGUUUGGUGGGUAAAAGAAUGAGAAGGGCGAUGAA [EX5 #9] (Eterna round: R97, puzzle: Exclusion 5)
Resp: 425

Req: Request - read-out apparent KD of MS2 coat protein | tested on MS2 coat protein | sequence GACAUGUGAGGAUAUUGCAUAUAGUUAUAAGUUCAGGGCGGCAAGAAGGCACAUGAGGAUCACCCAUGUACCUU [Eternabot (L2) Solution 81] (Eterna round: R97, puzzle: Exclusion 4)
Resp: 15.3

Req: Request - read-out apparent KD of MS2 coat protein | tested on MS2 coat protein | sequence UUAUUCAGAGGAUAUGCGCAUAGAUAAGACUUUUUUUUUUAACAUGAGGAUCACCCAUGUAGAAGGCUGUAAUU [Ex2 #55] (Eterna round: R97, puzzle: Exclusion 2)
Resp: 21

Req: Request - read-out apparent KD of MS2 coat protein | tested on MS2 coat protein | sequence ACGCCUAUAGUGAGGAUAUUGCGGGUAGGUAUUUGCAAGAAGGCACUUGAGGAUCACCCAAGUGAAGAAGUUGC [Geusra] (Eterna round: R97, puzzle: Brourd's mod of Exclusion 4)
Resp: 15.1

Req: Request - read-out apparent KD of MS2 coat protein | tested on MS2 coat protein | sequence AUCAGCUCGUCAGGAUAUGCACAUGAGGAUCACCCAUGUAAGAUCAAGCUGCUUCGGCAGCAAGUGCAGAAGGGACGAGCUGAU [ENG2/9-B2] (Eterna round: R96, puzzle: Exclusion NG 2)
Resp: 229
